# measured.target: GLP (Homo sapiens)
# Sequence (Q9H9B1 1-1298): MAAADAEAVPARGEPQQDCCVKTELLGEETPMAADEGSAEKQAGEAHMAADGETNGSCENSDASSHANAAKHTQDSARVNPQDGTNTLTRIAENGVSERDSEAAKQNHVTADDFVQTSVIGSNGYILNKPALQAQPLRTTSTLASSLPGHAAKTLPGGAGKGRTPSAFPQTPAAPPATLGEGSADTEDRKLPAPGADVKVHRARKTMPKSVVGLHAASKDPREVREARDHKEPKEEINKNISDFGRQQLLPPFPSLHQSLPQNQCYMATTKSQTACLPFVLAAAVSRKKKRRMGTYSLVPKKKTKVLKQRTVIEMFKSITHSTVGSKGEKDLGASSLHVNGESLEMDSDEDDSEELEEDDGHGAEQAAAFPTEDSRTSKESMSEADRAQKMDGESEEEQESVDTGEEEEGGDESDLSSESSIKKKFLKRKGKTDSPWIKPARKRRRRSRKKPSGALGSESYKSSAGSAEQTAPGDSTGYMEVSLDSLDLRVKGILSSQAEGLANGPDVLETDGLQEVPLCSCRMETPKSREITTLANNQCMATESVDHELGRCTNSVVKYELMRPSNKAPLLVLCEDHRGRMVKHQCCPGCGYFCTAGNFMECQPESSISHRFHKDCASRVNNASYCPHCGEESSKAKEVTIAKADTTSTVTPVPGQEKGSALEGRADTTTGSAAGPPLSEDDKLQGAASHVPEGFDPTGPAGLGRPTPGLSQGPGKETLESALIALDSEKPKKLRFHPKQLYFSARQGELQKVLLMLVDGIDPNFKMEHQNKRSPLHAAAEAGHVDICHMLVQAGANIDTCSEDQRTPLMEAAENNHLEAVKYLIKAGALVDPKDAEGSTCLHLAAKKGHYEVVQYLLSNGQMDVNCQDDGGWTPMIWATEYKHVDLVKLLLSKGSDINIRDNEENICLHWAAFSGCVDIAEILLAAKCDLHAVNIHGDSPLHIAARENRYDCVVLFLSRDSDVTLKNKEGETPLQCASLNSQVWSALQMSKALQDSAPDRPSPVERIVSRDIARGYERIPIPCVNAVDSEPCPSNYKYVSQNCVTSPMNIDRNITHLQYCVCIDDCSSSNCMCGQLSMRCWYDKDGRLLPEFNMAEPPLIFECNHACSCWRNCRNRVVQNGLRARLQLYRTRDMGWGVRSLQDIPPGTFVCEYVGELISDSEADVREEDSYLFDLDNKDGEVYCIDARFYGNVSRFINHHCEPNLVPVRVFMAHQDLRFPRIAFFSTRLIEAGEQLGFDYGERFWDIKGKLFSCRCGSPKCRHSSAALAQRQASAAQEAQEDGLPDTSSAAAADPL
# experiment.summary: Radioisotope-based methyltransferase assay (selectivity)
endpoint: pIC50
pIC50 (log units): -log10 of the concentration in mol/L.

Problem: Recorded pIC50 for Cc1c(C(=O)NC(CCC2CC2)C(=O)Nc2ccc(C#N)cc2)[nH]c2c1C(=O)CC(C)(C)C2 (stereo not shown) , please?
Solution: 7.28
